# tgt: VIM-2 (Escherichia coli, UniProt Q5U7L7)
# experimental.details: MBL inhibition, FC-5 fluorescence assay, VIM-2
# Format: biochemical
# test.settings: FC-5 cephalosporin substrate, ranges of obtained pIC50, read-out: pIC50 VIM-2 (converted)
reported.metric: IC50

Recorded IC50 (compound COc1ncc(-c2c(C(=O)O)[nH]c3c([C@H](C)N4C[C@]5(C[C@@H](CN)C5)OC4=O)cccc23)cc1O ): < 100 pM

Recorded IC50 (compound CC(c1cccc2c(-c3ccc(CS(C)(=O)=O)c(F)c3)c(C(=O)O)[nH]c12)n1cc(CN2CC[C@@H](N)C2)oc1=O (stereo partly shown) ): 100 to 1000 pM

Recorded IC50 (compound CC(OCc1cnn[nH]1)c1cccc2c(-c3ccc(CS(C)(=O)=O)c(F)c3)c(C(=O)O)[nH]c12 (stereo not shown) ): > 10000 pM

Recorded IC50 (compound COc1cc(-c2c(C(=O)O)[nH]c3c([C@H](C)N4CC5(CC(CN)C5)OC4=O)cccc23)ccn1 (stereo partly shown) ): 100 to 1000 pM

* * *

# tgt: VIM-2 (Escherichia coli, UniProt Q5U7L7)
# experimental.details: MBL inhibition, FC-5 fluorescence assay, VIM-2
# Assay type: biochemical
# test.settings: FC-5 cephalosporin substrate, ranges of obtained pIC50, read-out: pIC50 VIM-2 (converted)
Kindly state IC50 for each of the entries shown.

Recorded IC50 (compound C[C@@H](c1cccc2c(-c3cc[nH]c(=O)c3)c(C(=O)O)[nH]c12)n1cc(CN2CC(N)C2)oc1=O ): 1 to 10 nM

Recorded IC50 (compound C[C@@H](c1cccc2c(-c3ccc(NS(C)(=O)=O)c(F)c3)c(C(=O)O)[nH]c12)n1cc(CN2CC(N)C2)oc1=O ): 0.1 to 1 nM

Recorded IC50 (compound CC(NS(=O)(=O)c1ccccc1)c1cccc2c(-c3cc(Cl)cc(Cl)c3)c(C(=O)O)[nH]c12 (centres unmarked) ): > 10 nM

Recorded IC50 (compound CC(c1cccc2c(-c3ccc(CS(C)(=O)=O)c(F)c3)c(C(=O)O)[nH]c12)n1cc(CCC2(N)CC2)oc1=O (centres unmarked) ): 0.1 to 1 nM

Recorded IC50 (compound CC(c1noc(CCCN)n1)c1cccc2c(-c3ccc(CS(C)(=O)=O)c(F)c3)c(C(=O)O)[nH]c12 (centres unmarked) ): 0.1 to 1 nM

Recorded IC50 (compound CC(c1cccc2c(-c3ccc(CS(C)(=O)=O)c(F)c3)c(C(=O)O)[nH]c12)n1cc(CN)oc1=O (centres unmarked) ): 1 to 10 nM

Recorded IC50 (compound C[C@@H](c1cccc2c(-c3ccc4c(c3)CNC4=O)c(C(=O)O)[nH]c12)N1C[C@]2(C[C@@H](CN)C2)OC1=O ): < 0.1 nM

Recorded IC50 (compound CC(c1cccc2c(-c3ccc(CS(C)(=O)=O)c(F)c3)c(C(=O)O)[nH]c12)n1cc(CNS(N)(=O)=O)nn1 (centres unmarked) ): 1 to 10 nM

Recorded IC50 (compound C[C@@H](c1cccc2c(N3CCS(=O)(=O)CC3)c(C(=O)O)[nH]c12)N1C[C@]2(C[C@@H](CN)C2)OC1=O ): > 10 nM

Recorded IC50 (compound C[C@@H](c1cccc2c(-c3ccc(NS(=O)(=O)C4COC4)c(F)c3)c(C(=O)O)[nH]c12)N1C[C@]2(C[C@@H](CN)C2)OC1=O ): 0.1 to 1 nM

Recorded IC50 (compound CC(Nc1ncc(CCCN)o1)c1cccc2c(-c3ccc(CS(C)(=O)=O)c(F)c3)c(C(=O)O)[nH]c12 (centres unmarked) ): 1 to 10 nM

Recorded IC50 (compound COc1cc(-c2c(C(=O)O)[nH]c3c([C@H](C)N4C[C@]5(C[C@@H](CN)C5)OC4=O)cccc23)cnc1O ): 0.1 to 1 nM

Recorded IC50 (compound COc1cc(-c2c(C(=O)O)[nH]c3c([C@H](C)n4cc(CN5CC(N)C5)oc4=O)cccc23)ccn1 ): 0.1 to 1 nM

Recorded IC50 (compound C[C@@H](c1cccc2c(-c3cn[nH]c3)c(C(=O)O)[nH]c12)N1C[C@]2(C[C@@H](CN)C2)OC1=O ): 1 to 10 nM

This collection of values is drawn from patent US20240246913A1.
